- measured.target: Beta-2 adrenergic receptor (Homo sapiens) (UniProt P07550)
- Sequence (P07550 whole entry, looked up): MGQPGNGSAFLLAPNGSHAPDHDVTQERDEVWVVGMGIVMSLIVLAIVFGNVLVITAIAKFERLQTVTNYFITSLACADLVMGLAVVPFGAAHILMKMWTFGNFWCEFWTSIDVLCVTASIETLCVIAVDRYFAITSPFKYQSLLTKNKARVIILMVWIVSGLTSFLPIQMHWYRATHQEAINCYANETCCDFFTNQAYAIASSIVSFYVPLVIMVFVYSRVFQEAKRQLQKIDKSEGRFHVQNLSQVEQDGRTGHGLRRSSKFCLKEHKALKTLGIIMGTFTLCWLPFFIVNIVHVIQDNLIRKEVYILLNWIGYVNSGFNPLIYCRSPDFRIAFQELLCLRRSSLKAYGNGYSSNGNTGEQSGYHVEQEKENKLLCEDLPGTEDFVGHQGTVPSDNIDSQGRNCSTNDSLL
- assay.name: agonist-induced loss of surface beta2AR – cell-based, FAP fluorogen, flow cytometry, primary screen (AID 504454)
- condition.set: Am2.2-beta2AR cells, FAP receptor internalization, stronger effect = higher value, concentration not given here
In all, about 340,000 compounds went through this assay and about 1,400 (0.41%) were called active. For the sample, actives were picked, then their nearest neighbours and some compounds at random.
observable: response (%)
I only need the number, in %, no unit after it.

>>> quantitative_result("COC(=O)c1ccc(Sc2ccc(F)cc2)c(N)c1")
-3.98
>>> quantitative_result("COc1cccc(OC)c1C(=O)OCC(=O)/C(C#N)=C(\\C)N")
13.3
>>> quantitative_result("NC(=O)C1CCN(C(=O)/C(=C/c2ccco2)NC(=O)c2ccccc2)CC1")
1.8

IN: Fill in the blank: the reported response of CCOC(=O)c1c(-c2ccccc2)oc2cc(Br)c(O)c(C=O)c12 is ____.
OUT: 56.8

IN: Sample CCCCN(CC)C(=O)C1CCCN(S(=O)(=O)c2cccc3nsnc23)C1 (stereo not drawn) — what was its response?
OUT: -4.41

IN: // response lookup, key: COc1ccc(OC(C)C(=O)Nc2cccnc2)cc1 (stereo not drawn)
OUT: -1.88

IN: Look up response: CN(CCCNC(=O)CN1C(=O)CC(C)(C)S(=O)(=O)c2ccccc21)C1CCCCC1
OUT: -2.22

IN: Bench note: what response did Cc1cc(C)c(S(=O)(=O)n2cc(C(C)C(N)C(=O)O)c3ccccc32)c(C)c1 (stereo not drawn) show?
OUT: 3.12

IN: Reported response, compound O=S(=O)(Cc1cc(Sc2ccccc2)nc(-c2ccccc2)n1)c1ccccc1 : ____
OUT: 7.22

====

- measured.target: Beta-2 adrenergic receptor (Homo sapiens) (UniProt P07550)
- assay.name: agonist-induced loss of surface beta2AR – cell-based, FAP fluorogen, flow cytometry, primary screen (AID 504454)
- condition.set: Am2.2-beta2AR cells, FAP receptor internalization, stronger effect = higher value, concentration not given here
Screen size: about 340,000 compounds; about 1,400 (0.41%) were called active. Shown is part of a subset that was picked to be rich in actives.
observable: response

>>> result("CC(C)CCN(C(=O)c1csnn1)C(C(=O)NC1CCCC1)c1ccccc1 (stereo not drawn)")
"7.85% (inactive)"
>>> result("COCC1CCN(C(=O)CCc2nnc(C3(c4ccc(Cl)cc4)CCC3)o2)C1 (stereo not drawn)")
"-4.25% (inactive)"
>>> result("COc1ccc(S(=O)(=O)N2CCCC(C(=O)NCCCn3ccnc3)C2)cc1OC (stereo not drawn)")
"10.8% (inactive)"
>>> result("O=C(N/C(=C\\c1ccc([N+](=O)[O-])cc1)C(=O)N1CCOCC1)c1cccc(Br)c1")
"3.33% (inactive)"
>>> result("CC(=O)Nc1ccc(S(=O)(=O)N2CCN(CCCOc3cc(C)ccc3C)CC2)cc1")
"3.77% (inactive)"

IN: Quick one: response for CSc1ccc(CNC(=O)c2ccc(NC(=O)C3=CSCCO3)cc2)cc1 ?
OUT: 98.2% (active)

IN: For the molecule CCn1c(CNc2ccc(OC)cc2)nnc1SCC(=O)c1ccc(OC)cc1 , what response is on record?
OUT: 6.23% (inactive)

IN: Given the molecule O=C1c2oc3ccccc3c(=O)c2C(c2cccc(O)c2)N1c1ccccn1 (stereo not drawn) , what is its reported response?
OUT: -12.8% (inactive)

// data source = PubChem BioAssay AID504454
